Test: Preliminary water solubility test
Format: physicochemical
Conditions: thermodynamic from solid, 25 °C, ultrasonic treatment 30 min, visual
attribute_measured: solubility (µg/mL)
Give bare numbers, in µg/mL.

As a guide, the following entries are already answered.
[[record]]
compound = "CCCC[C@@H](C)C[C@@H](C)C(=O)N(C)[C@@H](Cc1ccc(OC)cc1)C(=O)N[C@H](C(=O)N(C)[C@H](C(=O)N1C[C@@H](O)C[C@H]1C(=O)N1C(=O)C=C[C@@H]1C)C(C)C)[C@@H](C)NC(=O)[C@@H](N)CC(C)C [Compound 16e]"
attribute_measured = "solubility"
quantity_unit = "µg/mL"
observed_value = 230

[[record]]
compound = "CCCC[C@@H](C)C[C@@H](C)C(=O)N(C)[C@@H](Cc1ccc(OC)cc1)C(=O)N[C@H](C(=O)N(C)[C@H](C(=O)N1C[C@@H](O)C[C@H]1C(=O)N1C(=O)C=C[C@@H]1C)C(C)C)[C@@H](C)NC(=O)[C@@H](N)Cc1ccc(O)cc1 [Compound 16m]"
attribute_measured = "solubility"
quantity_unit = "µg/mL"
observed_value = 160

[[record]]
compound = "CCCC[C@@H](C)C[C@@H](C)C(=O)N(C)[C@@H](Cc1ccc(OC)cc1)C(=O)N[C@H](C(=O)N(C)[C@H](C(=O)N1C[C@@H](O)C[C@H]1C(=O)N1C(=O)C=C[C@@H]1C)C(C)C)[C@@H](C)NC(=O)[C@@H](N)CCC(N)=O [Compound 16i]"
attribute_measured = "solubility"
quantity_unit = "µg/mL"
observed_value = 530


Next item in the queue.
INPUT: Can you look up the measured solubility of CCCC[C@@H](C)C[C@@H](C)C(=O)N(C)[C@@H](Cc1ccc(OC)cc1)C(=O)N[C@H](C(=O)N(C)[C@H](C(=O)N1C[C@@H](O)C[C@H]1C(=O)N1C(=O)C=C[C@@H]1C)C(C)C)[C@@H](C)NC(=O)[C@H](C)N [Compound 16h] for me?
OUTPUT: 360

----------
Assay: Preliminary water solubility test
Format: physicochemical
Settings: thermodynamic from solid, 25 °C, ultrasonic treatment 30 min, visual
Provide the reported solubility of each item.
Answers are plain numbers, in µg/mL.

[[record]]
compound = "CCCC[C@@H](C)C[C@@H](C)C(=O)N(C)[C@@H](Cc1ccc(OC)cc1)C(=O)N[C@H](C(=O)N(C)[C@H](C(=O)N1C[C@@H](O)C[C@H]1C(=O)N1C(=O)C=C[C@@H]1C)C(C)C)[C@@H](C)NC(=O)[C@@H](N)[C@@H](C)O [Compound 16b]"
quantity_unit = "µg/mL"
observed_value = 410

[[record]]
compound = "CCCC[C@@H](C)C[C@@H](C)C(=O)N(C)[C@@H](Cc1ccc(OC)cc1)C(=O)N[C@H](C(=O)N(C)[C@H](C(=O)N1C[C@@H](O)C[C@H]1C(=O)N1C(=O)C=C[C@@H]1C)C(C)C)[C@@H](C)NC(=O)[C@@H]1CCCN1 [Compound 16a]"
quantity_unit = "µg/mL"
observed_value = 210

[[record]]
compound = "CCCC[C@@H](C)C[C@@H](C)C(=O)N(C)[C@@H](Cc1ccc(OC)cc1)C(=O)N[C@H](C(=O)N(C)[C@H](C(=O)N1C[C@@H](O)C[C@H]1C(=O)N1C(=O)C=C[C@@H]1C)C(C)C)[C@@H](C)NC(=O)[C@@H](N)Cc1ccccc1 [Compound 16l]"
quantity_unit = "µg/mL"
observed_value = 130

[[record]]
compound = "CCCC[C@@H](C)C[C@@H](C)C(=O)N(C)[C@@H](Cc1ccc(OC)cc1)C(=O)N[C@H](C(=O)N(C)[C@H](C(=O)N1C[C@@H](O)C[C@H]1C(=O)N1C(=O)C=C[C@@H]1C)C(C)C)[C@@H](C)NC(=O)CN [Compound 16g]"
quantity_unit = "µg/mL"
observed_value = 160


Next item in the queue.
INPUT: Can you look up the measured solubility of CCCC[C@@H](C)C[C@@H](C)C(=O)N(C)[C@@H](Cc1ccc(OC)cc1)C(=O)N[C@H](C(=O)N(C)[C@H](C(=O)N1C[C@@H](O)C[C@H]1C(=O)N1C(=O)C=C[C@@H]1C)C(C)C)[C@@H](C)NC(=O)[C@@H](N)Cc1c[nH]c2ccccc12 [Compound 16c] for me?
OUTPUT: 200

----------
Test system: PANC-1 cells
Experiment: MTT cell activity assay (inhibitory activity against PANC-1 cells)
Format: cell-based
Conditions: Homo sapiens, PANC-1, 72 h, read-out: IC50 (nM), inhibitory activity against PANC-1 cells (Table 1), PANC-1 cells, 72 h incubation, mean ± SD, n = 3
attribute_measured: log10(IC50) (log10 of the value in nM)
For clarity, the numbers are log10 values of IC50 expressed in nM.

[[record]]
molecule = "CCCCC(C)CC(C)C(=O)N(C)C(Cc1ccccc1)C(=O)NC(C(=O)N(C)C(C(=O)N1CC(O)CC1C(=O)N1C(=O)C=CC1C)C(C)C)C(C)OC(C)=O (centres unmarked)"
observed_value = 1.86


State the recorded log10(IC50) for every item in the following list.
1. CCCCC(C)CC(C)C(=O)N(C)C(Cc1ccc(OC)cc1)C(=O)NC(C(=O)N(C)C(C(=O)N1CC(O)CC1C(=O)N1C(=O)C=CC1C)C(C)C)C(C)O (centres unmarked) [Compound 14a]
2. CCCCC(C)CC(C)C(=O)N(C)C(Cc1ccc(OC)cc1)C(=O)NC(C(=O)N(C)C(C(=O)N1CC(F)CC1C(=O)N1C(=O)C=CC1C)C(C)C)C(C)OC(C)=O (centres unmarked)

OUTPUT:
3.06
0.41

State the recorded log10(IC50) for every item in the following list.
1. CCCCC(C)CC(C)C(=O)N(C)C(Cc1ccc(OC)cc1)C(=O)NC(COC(C)=O)C(=O)N(C)C(C(=O)N1CC(O)CC1C(=O)N1C(=O)C=CC1C)C(C)C (centres unmarked)
2. CCCCC(C)CC(C)C(=O)N(C)C(Cc1ccc(OC)cc1)C(=O)NC(C(=O)N(C)C(C(=O)N1CC(O)CC1C(=O)N1CC=CC1=O)C(C)C)C(C)OC(C)=O (centres unmarked)

OUTPUT:
1: 0.33; 2: 2.13

----------
System: PANC-1 cells
Assay: MTT cell activity assay (inhibitory activity against PANC-1 cells)
Type: cell-based
Conditions: Homo sapiens, PANC-1, 72 h, read-out: IC50 (nM), inhibitory activity against PANC-1 cells (Table 1), PANC-1 cells, 72 h incubation, mean ± SD, n = 3
attribute_measured: IC50 (nM)
One number for each entry, in nM.

As a guide, the following entries are already answered.
[[record]]
compound = "CCCCC(C)CC(C)C(=O)N(C)C(Cc1ccc(O)cc1)C(=O)NC(C(=O)N(C)C(C(=O)N1CC(O)CC1C(=O)N1C(=O)C=CC1C)C(C)C)C(C)OC(C)=O (stereo not shown) [Compound 14c]"
attribute_measured = "IC50"
quantity_unit = "nM"
observed_value = 5.31

[[record]]
compound = "CCCCC(C)CC(C)C(=O)N(C)C(Cc1ccc(OC)cc1)C(=O)NC(C(=O)N(C)C(C(=O)N1CC(O)CC1C(=O)N1C(=O)C=CC1C)C(C)C)C(C)OC(F)(F)F (stereo not shown)"
attribute_measured = "IC50"
quantity_unit = "nM"
observed_value = 2.07


Next item in the queue.
INPUT: Can you look up the measured IC50 of `CCCCCC[C@@H](C)C(=O)N(C)[C@@H](Cc1ccc(F)cc1)C(=O)N[C@H](C(=O)N(C)[C@H](C(=O)N1C[C@@H](O)C[C@H]1C(=O)N1C(=O)C=C[C@@H]1C)C(C)C)[C@@H](C)OC(F)(F)F` for me?
OUTPUT: 3.83

----------
Experiment: Preliminary water solubility test
Assay type: physicochemical
Details: thermodynamic from solid, 25 °C, ultrasonic treatment 30 min, visual
attribute_measured: solubility (mg/mL)
One number for each entry, in mg/mL.

[[record]]
compound = "CCCC[C@@H](C)C[C@@H](C)C(=O)N(C)[C@@H](Cc1ccc(OC)cc1)C(=O)N[C@H](C(=O)N(C)[C@H](C(=O)N1C[C@@H](O)C[C@H]1C(=O)N1C(=O)C=C[C@@H]1C)C(C)C)[C@@H](C)NC(=O)C1CCC(=O)N1 (stereo partly shown) [Compound 16k]"
observed_value = 0.33

[[record]]
compound = "CCCC[C@@H](C)C[C@@H](C)C(=O)N(C)[C@@H](Cc1ccc(OC)cc1)C(=O)N[C@H](C(=O)N(C)[C@H](C(=O)N1C[C@@H](O)C[C@H]1C(=O)N1C(=O)C=C[C@@H]1C)C(C)C)[C@@H](C)NC(=O)[C@@H](N)CO [Compound 16j]"
observed_value = 0.36

[[record]]
compound = "CCCC[C@@H](C)C[C@@H](C)C(=O)N(C)[C@@H](Cc1ccc(OC)cc1)C(=O)N[C@H](C(=O)N(C)[C@H](C(=O)N1C[C@@H](O)C[C@H]1C(=O)N1C(=O)C=C[C@@H]1C)C(C)C)[C@@H](C)NC(=O)[C@@H](N)CCSC [Compound 16f]"
observed_value = 0.17


INPUT: Can you look up the measured solubility of CCCC[C@@H](C)C[C@@H](C)C(=O)N(C)[C@@H](Cc1ccc(OC)cc1)C(=O)N[C@H](C(=O)N(C)[C@H](C(=O)N1C[C@@H](O)C[C@H]1C(=O)N1C(=O)C=C[C@@H]1C)C(C)C)[C@@H](C)NC(=O)CNC [Compound 16d] for me?
OUTPUT: 0.81
